From: the supplement of paper PMC4466140

measurementTarget: CaFus1
assayOverview: SPOT peptide array binding signal intensity (averaged, normalized) (arbitrary units (background-subtracted, floor 0; scale differs between SH3 domains)); higher = stronger binding of the SH3 domain to the peptide
endpointLabel: SPOT peptide array binding signal intensity
Just the number, please, no unit after it.

Worked examples follow.
binder: KRKRFNLLLPKPYLT
numericResult: 548
//
binder: SLSRRRFSLPSMPNV
numericResult: 1080
//
binder: RSRRSSFAYPQQVAI
numericResult: 262
//
binder: SSSSSPPPLPTRRDH
numericResult: 26
//
binder: NENKKLPPAPTVFGL
numericResult: 36.5

Requested field: SPOT peptide array binding signal intensity. Item: `PSRRDSLSIPRAVDA`
65

Which SPOT peptide array binding signal intensity value belongs to `RRARRQMGIPTISQV` ?
657
